MEASURED_TARGET: UniProt P21554
EXPERIMENT_DESCRIPTION: Inverse agonist activity at human CB1 receptor expressed in CHO-K1 cells by GTPgammaS binding assay
Assay type: functional, cell-based
Catalogue of pIC50 readings, one per entry.
Note on pIC50: it is the negative log10 of concentration, concentration in mol/L.

Solved cases (3 shown):
N#CC1(c2ccccc2)CCN(C(=O)c2nn(-c3ccccc3Cl)c(-c3ccc(Cl)cc3)c2CC(N)=O)CC1 :: 9.96
NC(=O)Cc1c(C(=O)NN2CCOCC2)nn(-c2ccccc2Cl)c1-c1ccc(Cl)cc1 :: 8.77
NC(=O)Cc1c(C(=O)NC2CCN(C(=O)C3CC3)CC2)nn(-c2ccccc2Cl)c1-c1ccc(Cl)cc1 :: 8.92

[ask] GET pIC50 | system: UniProt P21554 | item: `N#CCc1c(C(=O)NN2CCCCC2)nn(-c2ccccc2Cl)c1-c1ccc(Cl)cc1`
[reply] 8.74

[ask] GET pIC50 | system: UniProt P21554 | item: `NC(=O)Cc1c(C(=O)N2CCC(O)(c3ccc(F)cn3)CC2)nn(-c2ccccc2Cl)c1-c1ccc(Cl)cc1`
[reply] 8.68

[ask] GET pIC50 | system: UniProt P21554 | item: `NC(=O)Cc1c(C(=O)NN2CCCCC2)nn(-c2ccccc2Cl)c1-c1ccc(Cl)cc1`
[reply] 9.09

###

MEASURED_TARGET: Cannabinoid receptor 1 (Homo sapiens, UniProt P21554)
Sequence (P21554 whole entry): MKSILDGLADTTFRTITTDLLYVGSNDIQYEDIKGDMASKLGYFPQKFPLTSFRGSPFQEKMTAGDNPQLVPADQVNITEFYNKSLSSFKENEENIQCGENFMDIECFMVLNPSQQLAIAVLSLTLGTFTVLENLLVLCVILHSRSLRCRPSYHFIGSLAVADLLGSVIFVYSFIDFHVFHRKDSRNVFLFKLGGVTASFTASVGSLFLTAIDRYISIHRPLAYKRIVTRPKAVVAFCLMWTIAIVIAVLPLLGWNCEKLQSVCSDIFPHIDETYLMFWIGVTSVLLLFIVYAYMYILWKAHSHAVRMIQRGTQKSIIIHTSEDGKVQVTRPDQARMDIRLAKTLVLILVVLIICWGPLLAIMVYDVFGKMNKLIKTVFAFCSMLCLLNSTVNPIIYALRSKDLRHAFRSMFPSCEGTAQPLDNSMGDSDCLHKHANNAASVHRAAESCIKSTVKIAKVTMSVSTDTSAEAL
Assay type: functional, cell-based, CHO-K1
Description: Antagonist activity at human CB1 receptor expressed in CHO-K1 cells assessed as inhibition of CP-55940-induced GTPgammaS binding
READOUT: IC50 (nM)
Give just the numeric value; nM need not be written.

Solved cases (6 shown):
NC(=O)Cc1c(C(=O)N2CCC(O)(c3ccc(F)cc3)CC2)nn(-c2ccccc2Cl)c1-c1ccc(Cl)cc1 :: 0.19
N#CC1(c2ccccc2)CCN(C(=O)c2nn(-c3ccccc3Cl)c(-c3ccc(Cl)cc3)c2CC(N)=O)CC1 :: 0.23
N=C(Cc1c(C(=O)NN2CCCCC2)nn(-c2ccccc2Cl)c1-c1ccc(Cl)cc1)NO :: 1.8
N=C(Cc1c(C(=O)N2CCC(c3ncccn3)CC2)nn(-c2ccccc2Cl)c1-c1ccc(Cl)cc1)NO :: 21
N=C(N)Cc1c(C(=O)NN2CCOCC2)nn(-c2ccccc2Cl)c1-c1ccc(Cl)cc1 :: 26
N=C(N)Cc1c(C(=O)Nc2ccc(F)cc2)nn(-c2ccccc2Cl)c1-c1ccc(Cl)cc1 :: 1.5

[ask] Return IC50 (reported value) for this compound: `N#CN1CCC(CNC(=O)c2nn(-c3ccccc3Cl)c(-c3ccc(Cl)cc3)c2CC(N)=O)CC1`
[reply] 0.66

[ask] Return IC50 (reported value) for this compound: `NC(=O)Cc1c(C(=O)N2CCC(c3ncccn3)CC2)nn(-c2ccccc2Cl)c1-c1ccc(Cl)cc1`
[reply] 0.71

[ask] Return IC50 (reported value) for this compound: `NC(=O)Cc1c(C(=O)N2CCC(C(=O)O)(c3ccc(F)cn3)CC2)nn(-c2ccccc2Cl)c1-c1ccc(Cl)cc1`
[reply] 30

[ask] Return IC50 (reported value) for this compound: `N=C(Cc1c(C(=O)Nc2ccc(F)cc2)nn(-c2ccccc2Cl)c1-c1ccc(Cl)cc1)NO`
[reply] 1.1

[ask] Return IC50 (reported value) for this compound: `N=C(N)Cc1c(C(=O)NCc2ccc(F)cc2)nn(-c2ccccc2Cl)c1-c1ccc(Cl)cc1`
[reply] 1.2
